# Test system: HCT-15
Metric: GI50

Q: // GI50 lookup, key: CCCCSC1=N/C(=C\c2ccccc2O)C(=O)N1
Result: 96.6 µM

Q: Likewise for O=C(O)[C@H]1NC[C@H]2C(Br)=NO[C@@H]12 ?
Result: > 100 µM

Q: Likewise for COC(=O)c1ccccc1/C=C1\Cc2c(ccc3c2CCC3)C1=O ?
Result: > 100 µM

Q: Likewise for CCSC1=N/C(=C\c2ccco2)C(=O)N1 ?
Result: > 100 µM

Q: Likewise for CN(C)/C=C/c1c2c(nc3ccccc13)C(=O)c1ccccc1C2=O ?
Result: 0.766 µM

Q: Likewise for Cc1cc2nc3c(C(OC4OC(CO)C(O)C(O)C4O)C(O)CO)nn(-c4ccc(F)cc4)c3nc2cc1C (centres undefined) ?
Result: > 100 µM

Q: Likewise for COc1cc(C(=O)NC(CCN)(c2ccccc2)c2ccccc2)cc(OC)c1OC ?
Result: > 31.6 µM

Q: Likewise for CC(OCc1ccccc1)C(NC(=O)C1CSSCC(NC(=O)C(Cc2ccccc2)NC(=O)OCc2ccccc2)C(=O)NC(Cc2ccccc2)C(=O)NC(Cc2cn(C=O)c3ccccc23)C(=O)NC(CCCCNC(=O)OCc2ccccc2)C(=O)NC(C(C)OCc2ccccc2)C(=O)N1)C(N)=O (centres undefined) ?
Result: 32 µM

Q: Likewise for C/C(CCOC1CCCCO1)=C(\C)[Si](C)(C)C (centres undefined) ?
Result: > 100 µM
